Test system: hedgehog signaling pathway
Experiment: Gli-Luc Reporter Assay for Hh Pathway Inhibition (TMHh-12 cells, pTA-8×Gli-Luc reporter)
Assay type: cell-based, Mouse
Settings: Mus musculus, TMHh12, enzymatic and cellular assays for the inhibition of hedgehog signaling pathways; read-out: IC50 Ranges
pIC50: −log10 of the molar value.
Result Type: pIC50

Cc1ccc(-c2cc(Nc3cccc4c3CCN(S(C)(=O)=O)C4)ccc2C)nn1: 8.00 to 9.00
COC(=O)c1ccc(-c2cc(Nc3cccc4c3CCN(S(C)(=O)=O)C4)ccc2C)cc1: 6.00 to 7.00
COc1cccc(-c2cnc(-c3cc(Nc4cccc5c4CCN(S(C)(=O)=O)C5)ccc3C)[nH]2)n1: 9.00 to 12.00
Cc1ccc(Nc2cccc3c2CCN(C2CCS(=O)(=O)CC2)C3)cc1-c1ncccc1F: 9.00 to 12.00
Cc1ccc(Nc2cccc3c2CCN(CCS(C)(=O)=O)C3)cc1-c1ccc(Cl)cn1: 9.00 to 12.00
COc1ccc(-c2cc(Nc3cccc4c3CCN([C@H]3CCS(=O)(=O)C3)C4)ccc2C)nn1: 8.00 to 9.00
COc1ccc2[nH]c(-c3cc(Nc4cccc5c4CCN(S(C)(=O)=O)C5)ccc3C)nc2c1: 9.00 to 12.00
OCC(F)(F)CN1CCc2c(cccc2Nc2ccc(Cl)c(-c3nc(-c4ccccc4)c[nH]3)c2)C1: 9.00 to 12.00
Cc1ccc(-c2nc(Nc3cccc4c3CCN(CCS(C)(=O)=O)C4)ccc2C)nc1: 7.00 to 8.00
COc1ccc(-c2cc(Nc3cccc4c3CCN(C3CS(=O)(=O)C3)C4)ccc2C)nn1: 8.00 to 9.00
Cc1ccc(Nc2cccc3c2CCN(S(=O)(=O)CCN(C)C)C3)cc1-c1ncccc1F: 9.00 to 12.00
O=C([C@H](O)CO)N1CCc2c(cccc2Nc2ccc(Cl)c(-c3nc(-c4ccccc4)c[nH]3)c2)C1: 9.00 to 12.00
Clc1ccc(Nc2cccc3c2CCN(C2CCCCC2)C3)cc1-c1ncc(-c2ccccc2)[nH]1: 8.00 to 9.00
CS(=O)(=O)N1CCc2c(cccc2Nc2ccc(Cl)c(-c3ccc(F)cn3)n2)C1: 8.00 to 9.00
Cc1c(CN(C)C)cc(Nc2cccc3c2CCN(S(C)(=O)=O)C3)cc1-c1ccc(F)cn1: 5.00 to 6.00
CCOc1ccc(-c2cc(Nc3cccc4c3CCN([C@H]3CCS(=O)(=O)C3)C4)ccc2C)nn1: 8.00 to 9.00

###

Tested on: hedgehog signaling pathway
Test: Gli-Luc Reporter Assay for Hh Pathway Inhibition (TMHh-12 cells, pTA-8×Gli-Luc reporter)
Format: cell-based, Mouse
Conditions: Mus musculus, TMHh12, enzymatic and cellular assays for the inhibition of hedgehog signaling pathways; read-out: IC50 Ranges
Result Type: IC50

COc1ccc(NC(=O)c2cc(Nc3cccc4c3CCN(S(C)(=O)=O)C4)ccc2C)cc1 [Compound 161]: 0.001 to 1 nM
Cc1ccc(Nc2nccc3c2CCN(S(C)(=O)=O)C3)cc1C(=O)Nc1ccccc1 [Compound 247]: 10 to 100 nM
CCOc1ccc(-c2cc(Nc3cccc4c3CCN(C3CCS(=O)(=O)C3)C4)ccc2C)nn1 (centres unmarked) [Compound 296]: 1 to 10 nM
Cc1ccc(Nc2cccc3c2CCN(S(C)(=O)=O)C3)cc1-c1nc2cc(F)ccc2[nH]1 [Compound 61]: 0.001 to 1 nM
C[C@H](O)C(=O)N1CCc2c(cccc2Nc2ccc(Cl)c(-c3ncc(-c4ccccc4)[nH]3)c2)C1 [Compound 20]: 1 to 10 nM
Cc1ncc(Nc2cccc3c2CCN(S(C)(=O)=O)C3)cc1-c1ccc(F)cn1 [Compound 202]: 10 to 100 nM
CC1(C)OC[C@H](CN2CCC(N3CCc4c(cccc4Nc4ccc(Cl)c(-c5ncc(-c6ccccc6)[nH]5)c4)C3)CC2)O1 [Compound 28]: 1 to 10 nM
Cc1ccc(Nc2cccc3c2CCN(S(C)(=O)=O)C3)cc1-c1cccc(F)n1 [Compound 218]: 10 to 100 nM
CCS(=O)(=O)N1CCc2c(ncnc2Nc2ccc(C)c(-c3ccc(C)cn3)c2)C1 [Compound 293]: 0.001 to 1 nM
CCS(=O)(=O)CCN1CCc2c(cccc2Nc2ccc(C)c(-c3ccc(OC)nn3)c2)C1 [Compound 282]: 1 to 10 nM
Cc1ccc(Nc2ncnc3c2CCN(S(=O)(=O)C(C)C)C3)cc1-c1ccc(F)cn1 [Compound 300]: 0.001 to 1 nM
C[S+]([O-])CCCN1CCc2c(cccc2Nc2ccc(Cl)c(-c3ncc(-c4ccccc4)[nH]3)c2)C1 (centres unmarked) [Compound 47]: 1 to 10 nM
Cc1cccc(-c2cc(Nc3cccc4c3CCN(S(C)(=O)=O)C4)ccc2C)n1 [Compound 191]: 1 to 10 nM
Cc1ccc(-c2cc(Nc3ncnc4c3CCN(C3CS(=O)(=O)C3)C4)ccc2C)nc1 [Compound 288]: 10 to 100 nM
Cc1ccc(Nc2cccc3c2CCN(S(C)(=O)=O)C3)cc1-c1ccc(C(F)(F)F)cc1 [Compound 136]: 10 to 100 nM
Cc1ccc(Nc2ncnc3c2CCN(C2CCS(=O)(=O)CC2)C3)cc1-c1cc2ccccc2cn1 [Compound 342]: 1 to 10 nM
Cc1ccc(Nc2cccc3c2CCN(C(=O)C(C)(CO)CO)C3)cc1-c1nc2ccccc2[nH]1 [Compound 70]: 0.001 to 1 nM
Cc1ccc(Nc2cccc3c2CCN(C[C@H](O)CO)C3)cc1-c1ccc(F)cn1 [Compound 195]: 1 to 10 nM
Cc1ccc(Nc2cccc3c2CCN(S(C)(=O)=O)C3)cc1Oc1ccccn1 [Compound 214]: 100 to 1000 nM
CCOc1cnc(-c2cc(Nc3cccc4c3CCN(C3CCS(=O)(=O)C3)C4)ccc2C)cn1 (centres unmarked) [Compound 308]: 1 to 10 nM
CC1(N2CCc3c(cccc3Nc3ccc(Cl)c(-c4ncc(-c5ccccc5)[nH]4)c3)C2)CC1 [Compound 80]: 1 to 10 nM
Cc1ccc(Nc2cccc3c2CCN(CCS(C)(=O)=O)C3)cc1-c1ccc(F)cn1 [Compound 232]: 1 to 10 nM
Cc1ccc(Nc2cccc3c2CCN(C2CCS(=O)(=O)C2)C3)cc1-c1ncccc1F (centres unmarked) [Compound 268]: 0.001 to 1 nM
Cc1ccc(-c2cc(Nc3cccc4c3CCN(CC(C)(C)O)C4)ccc2C)nc1 [Compound 201]: 0.001 to 1 nM
CCOc1ccc(-c2cc(Nc3cccc4c3CCN([C@@H]3CCS(=O)(=O)C3)C4)ccc2C)nn1 [Compound 339]: 1 to 10 nM
[O-][n+]1ccc(N2CCc3c(cccc3Nc3ccc(Cl)c(-c4ncc(-c5ccccc5)[nH]4)c3)C2)cc1 [Compound 49]: 1 to 10 nM
Cc1ccc(Nc2cccc3c2CCN(S(C)(=O)=O)C3)cc1-c1ccc(-c2ccco2)cc1 [Compound 121]: 100 to 1000 nM
Cc1ccc(Nc2cccc3c2CCN(S(C)(=O)=O)C3)cc1C(=O)N(CCO)c1ccccc1 [Compound 194]: 100 to 1000 nM
Cc1ccc(Nc2cccc3c2CCN(S(C)(=O)=O)C3)cc1-c1cnc(N(C)C)nc1 [Compound 124]: 100 to 1000 nM
Cc1ccc(Nc2cccc3c2CCN(CC(C)(C)F)C3)cc1-c1ccc(C#N)cn1 [Compound 198]: 0.001 to 1 nM
Clc1ccc(Nc2cccc3c2CCN(C2CC2)C3)cc1-c1ncc(-c2ccccc2)[nH]1 [Compound 82]: 0.001 to 1 nM
Cc1ccc(Nc2cccc3c2CCN(S(C)(=O)=O)C3)cc1-c1ccc(C(C)(C)C)cc1 [Compound 113]: 1000 to 10000 nM

From: patent US9216964B2
